System: Anopheles stephensi
Test: Anopheles stephensi treated well plate contact test: knockdown and mortality
Type: in vivo
Conditions: test compound 200 ppm, without TFNA-AM, after 48 hours
observation_type: mortality % 48, without TFNA-AM (%)
Give the value in % but do not write % after it.

A selection of reference data follows.
compound | mortality % 48, without TFNA-AM, %
O=c1c(-c2cccc(C(F)(F)F)c2)c([O-])[n+](Cc2cncnc2)c2ccccn12 [Triflumizopyrim] | 40
O=C1C=C(N(Cc2ccc(Cl)nc2)CC(F)F)CO1 [Flupyradifurone] | 30
CN(C(=O)c1ccccc1)c1cccc(C(=O)Nc2c(Br)cc(C(F)(C(F)(F)F)C(F)(F)F)cc2C(F)(F)F)c1F [Broflanilide] | 100
CO/C=C(/C(=O)OC)c1ccccc1COc1cccc(C(F)(F)F)n1 [Picoxystrobin] | 100

Problem: Give its mortality % 48, without TFNA-AM value. Item: N#Cc1ccc(CC(=NNC(=O)Nc2ccc(OC(F)(F)F)cc2)c2cccc(C(F)(F)F)c2)cc1 (mixture of isomers) [Metaflumizone]
Result: 80
